test: In vitro metabolic stability in rat hepatocytes; type: in vitro ADME; conditions: maximal oral bioavailability calculated from half-life in Han Wistar rat hepatocytes, 1 μM test compound
Quantity name: Fmax rat hep (%)
// return numeric value only (unit: %, not printed)

COc1ccc(Oc2cc(NCC3COC3)c3ncc(-c4ccc(C(=O)NC5CC5)c(C)c4)n3n2)cc1F [Example 1]; 44

*Q* Please list Fmax rat hep recorded for the compound COc1ccc(Oc2cc(NCCC(F)(F)F)c3ncc(-c4ccc(C(=O)NC5CC5)c(C)c4)n3n2)c(F)c1F [Example 2]
*A* 72

*Q* Please list Fmax rat hep recorded for the compound COc1ccc(Oc2cc(NCC3CCOCC3)c3ncc(-c4ccc(C(=O)NC5CC5)c(C)c4)n3n2)c(F)c1F [Example 3]
*A* 39

*Q* Please list Fmax rat hep recorded for the compound Cc1cc(-c2cnc3c(NCCC(F)(F)F)cc(Oc4cccc(F)c4)nn23)ccc1C(=O)NC1CC1 [Ref., reference compound]
*A* 38

----------
target: human CYP3A4 (Homo sapiens (Human)); assay: Determination of inhibitory potential on human CYP3A4; assay type: in vitro ADME; details: human liver microsomes, midazolam as probe substrate
Sequence (P08684 whole entry): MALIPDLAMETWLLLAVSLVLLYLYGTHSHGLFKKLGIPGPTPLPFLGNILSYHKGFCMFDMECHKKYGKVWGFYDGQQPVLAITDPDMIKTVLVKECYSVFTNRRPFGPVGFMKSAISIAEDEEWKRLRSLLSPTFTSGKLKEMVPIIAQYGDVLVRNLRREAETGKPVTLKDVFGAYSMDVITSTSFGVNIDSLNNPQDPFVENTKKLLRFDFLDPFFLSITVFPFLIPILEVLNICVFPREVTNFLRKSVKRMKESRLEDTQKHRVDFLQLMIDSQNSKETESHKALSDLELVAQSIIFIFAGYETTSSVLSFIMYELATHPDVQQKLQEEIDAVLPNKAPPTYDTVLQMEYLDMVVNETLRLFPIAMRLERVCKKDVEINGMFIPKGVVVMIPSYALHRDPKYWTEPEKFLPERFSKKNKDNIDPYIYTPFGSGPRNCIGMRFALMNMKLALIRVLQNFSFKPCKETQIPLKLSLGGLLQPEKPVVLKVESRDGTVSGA
Quantity name: IC50

These solved cases illustrate the format of a correct answer.
COc1ccc(Oc2cc(NCC3COC3)c3ncc(-c4ccc(C(=O)NC5CC5)c(C)c4)n3n2)cc1F; > 5 µM
Cc1cc(-c2cnc3c(NCCC(F)(F)F)cc(Oc4cccc(F)c4)nn23)ccc1C(=O)NC1CC1 [Ref., reference compound]; > 10 µM

Let's switch to this compound now.
*Q* Please list IC50 recorded for the compound COc1ccc(Oc2cc(NCC3CCOCC3)c3ncc(-c4ccc(C(=O)NC5CC5)c(C)c4)n3n2)c(F)c1F
*A* > 10 µM
